Recorded measurements of surviving fraction, one per entry
# Test system: E34 (patient-derived glioblastoma stem cells of proneural subtype)
# experiment: surviving fraction (nuclei count normalised to DMSO); higher = more cells surviving (less toxic)
# condition details: 333.3 nM; exposure time: 72 h
Counter-ions that a name gives are not always drawn.

COc1cccc2c1C(=O)c1c(O)c3c(c(O)c1C2=O)C[C@@](O)(C(=O)CO)C[C@@H]3O[C@H]1C[C@H](N)[C@H](O[C@@H]2CCCCO2)[C@H](C)O1 : 0.331
CC(C)(Oc1ccc(C2CC2(Cl)Cl)cc1)C(=O)O (centres undefined) [Ciprofibrate] : 0.986

# get_value(readout='surviving fraction', item= Nc1nc(Cl)nc2c1ncn2[C@@H]1O[C@H](CO)[C@@H](O)[C@@H]1F )
0.558

Also, CC(C)C[C@H]1C(=O)N2CCC[C@H]2[C@]2(O)O[C@](NC(=O)[C@@H]3C=C4c5cccc6[nH]c(Br)c(c56)C[C@H]4N(C)C3)(C(C)C)C(=O)N12 [Bromocryptine mesylate] please.
0.879

====

Recorded measurements of phenotypic distance, one per entry
# Tested on: E34
# experiment: phenotypic distance (Euclidean, principal components) from DMSO controls (arbitrary units); higher = stronger morphological change
# condition details: 1000 nM; exposure time: 72 h
Where a name gives a salt, the structure may show the parent alone.
// return just the number, without any unit appended

CCN(CC)CCCC(C)Nc1c2ccc(Cl)cc2nc2ccc(OC)cc12 (stereo not given) [Quinacrine dihydrochloride hydrate] : 1.21
COC(=O)Nc1nc2cc(C(=O)c3cccs3)ccc2[nH]1 : 8.12
COC(=O)Nc1nc2cc(Sc3ccccc3)ccc2[nH]1 : 4.45

# get_value(readout='phenotypic distance', item= Cc1ccc(NC(=O)c2ccc3c(c2)OCCO3)cc1NC(=O)c1ccc2nc(OCCN3CCCC3)ccc2c1 )
2.97

Also, CC(C)C[C@H]1C(=O)N2CCC[C@H]2[C@]2(O)O[C@](NC(=O)[C@@H]3C=C4c5cccc6[nH]c(Br)c(c56)C[C@H]4N(C)C3)(C(C)C)C(=O)N12 [Bromocryptine mesylate] please.
0.94

Also, Oc1ccc(OCc2ccccc2)cc1 please.
0.28

Also, CCn1cc(-c2ccnc3[nH]c(-c4cccc(CN(C)C)c4)cc23)c(-c2ccc(NC(=O)N(C)C)cc2)n1 please.
2.62

Also, NCc1ccccc1CC(=O)N[C@@H]1C(=O)N2C(C(=O)O)=C(CSc3nnnn3CC(=O)O)CS[C@H]12 [Ceforanide] please.
0.522

Also, O=C(/C=C/c1cccnc1)NCCCCC1CCN(C(=O)c2ccccc2)CC1 please.
2.32

Also, Nc1ccc(-c2ccc3ncc4ccc(=O)n(-c5cccc(C(F)(F)F)c5)c4c3c2)cn1 please.
2.85

====

Recorded measurements of phenotypic distance, one per entry
# System: FT3469 (normal neural stem cell line)
# experiment: phenotypic distance (Euclidean, principal components) from DMSO controls (arbitrary units); higher = stronger morphological change
# condition details: 111.1 nM; exposure time: 72 h
Where a name gives a salt, the structure may show the parent alone.
// return just the number, without any unit appended

Example cases with answers are listed next.
CCC(C)(C)C(=O)O[C@H]1C[C@@H](C)C=C2C=C[C@H](C)[C@H](CC[C@@H]3C[C@@H](O)CC(=O)O3)[C@H]21 : 1.86
CN[C@@H](C)C(=O)N[C@H](C(=O)N1CCC[C@H]1C(=O)N[C@H]1c2ccccc2C[C@H]1OCC#CC#CCO[C@@H]1Cc2ccccc2[C@@H]1NC(=O)[C@@H]1CCCN1C(=O)[C@@H](NC(=O)[C@H](C)NC)C1CCCCC1)C1CCCCC1 : 0.955
CCC(C)(C)c1ccc(CC(C)CN2C[C@@H](C)O[C@@H](C)C2)cc1 (stereo partly specified) [Amorolfine hydrochloride] : 0.588
COc1ccc2[nH]c([S+]([O-])Cc3ncc(C)c(OC)c3C)nc2c1 (stereo unspecified) : 1.14
C[C@H]1O[C@@H](O[C@H]2[C@@H](O)C[C@H](O[C@H]3[C@@H](O)C[C@H](O[C@H]4CC[C@@]5(C)[C@H](CC[C@@H]6[C@@H]5C[C@@H](O)[C@]5(C)[C@@H](C7=CC(=O)OC7)CC[C@]65O)C4)O[C@@H]3C)O[C@@H]2C)C[C@H](O)[C@@H]1O : 3.74

We now examine a further compound.
Give FT3469 phenotypic distance for OCCN1CCN(CCCN2c3ccccc3Sc3ccc(Cl)cc32)CC1
0.602
